Every entry's value here was drawn from PubChem BioAssay (Tox21).

target_or_test_system: Estrogen receptor (Homo sapiens) (UniProt P03372)
Sequence (P03372 whole entry, looked up): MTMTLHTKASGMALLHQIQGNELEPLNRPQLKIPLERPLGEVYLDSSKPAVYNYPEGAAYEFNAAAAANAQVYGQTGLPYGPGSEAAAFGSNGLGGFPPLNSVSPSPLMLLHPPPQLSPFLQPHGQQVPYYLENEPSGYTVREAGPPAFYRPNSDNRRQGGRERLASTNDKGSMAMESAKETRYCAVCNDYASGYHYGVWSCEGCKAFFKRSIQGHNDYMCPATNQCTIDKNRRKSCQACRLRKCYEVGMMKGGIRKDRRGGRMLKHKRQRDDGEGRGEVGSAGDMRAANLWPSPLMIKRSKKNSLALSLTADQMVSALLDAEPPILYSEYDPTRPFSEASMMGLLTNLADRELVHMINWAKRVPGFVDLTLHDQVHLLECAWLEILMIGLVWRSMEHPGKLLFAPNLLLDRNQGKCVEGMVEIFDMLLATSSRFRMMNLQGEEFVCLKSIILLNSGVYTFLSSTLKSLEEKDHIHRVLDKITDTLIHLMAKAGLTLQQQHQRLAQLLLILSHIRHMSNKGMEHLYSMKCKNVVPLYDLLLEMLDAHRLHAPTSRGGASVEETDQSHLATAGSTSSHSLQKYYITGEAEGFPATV
protocol_text: qHTS assay to identify small molecule agonists of the estrogen receptor alpha (ER-alpha) signaling pathway in the presence of an antagonist (AID 1259383); further: top concentration of the series differs between compounds; nearly all actives have a fitted effect of over 15% in size
condition_description: VM7Luc4E2 cells, ERE-luciferase, +ICI-182,780, 22 h; series mostly up to 92.4 µM
Excerpt: National Center for Advancing Translational Sciences [NCATS] NIH Chemical Genomics Center [NCGC] U.S. Environmental Protection Agency [EPA] National Institutes of Environmental Health Sciences [NIEHS] National Toxicology Program [NTP] Assay overview: Estrogen receptor (ER), a member of nuclear hormone receptor plays an important role in development, metabolic homeostasis and reproduction. Two subtypes of ER, ER-alpha and ER-beta, have similar expression patterns with some uniqueness in both types. […]
Calls of active or inactive are those of the source. The call rests on the fitted dose curve.
Tick one outcome: active, inactive

Known results for compounds:
{"compound": "BrCC1CO1 (stereo unspecified)", "target_or_test_system": "Estrogen receptor (Homo sapiens) (UniProt P03372)", "assigned_category": "inactive"}
{"compound": "O=C(O)C(Br)(Br)Br", "target_or_test_system": "Estrogen receptor (Homo sapiens) (UniProt P03372)", "assigned_category": "inactive"}
{"compound": "ClCCN1CCCC1", "target_or_test_system": "Estrogen receptor (Homo sapiens) (UniProt P03372)", "assigned_category": "inactive"}
{"compound": "C=CCC1(C(C)CC)C(=O)NC(=O)NC1=O (stereo unspecified)", "target_or_test_system": "Estrogen receptor (Homo sapiens) (UniProt P03372)", "assigned_category": "inactive"}
{"compound": "CC(C)[N+](C)(CCC(C(N)=O)(c1ccccc1)c1ccccc1)C(C)C", "target_or_test_system": "Estrogen receptor (Homo sapiens) (UniProt P03372)", "assigned_category": "inactive"}
{"compound": "CCCOC(=O)c1cncn1C(C)c1ccccc1 (stereo unspecified)", "target_or_test_system": "Estrogen receptor (Homo sapiens) (UniProt P03372)", "assigned_category": "inactive"}
{"compound": "CCCN1CCC[C@@H]2Cc3[nH]ncc3C[C@H]21", "target_or_test_system": "Estrogen receptor (Homo sapiens) (UniProt P03372)", "assigned_category": "inactive"}
{"compound": "CCOP(=O)(CN(CCO)CCO)OCC", "target_or_test_system": "Estrogen receptor (Homo sapiens) (UniProt P03372)", "assigned_category": "inactive"}
{"compound": "O=C(Cl)CCl", "target_or_test_system": "Estrogen receptor (Homo sapiens) (UniProt P03372)", "assigned_category": "inactive"}
{"compound": "C/C(=N\\NC(=O)Nc1cc(F)cc(F)c1)c1ncccc1C(=O)O", "target_or_test_system": "Estrogen receptor (Homo sapiens) (UniProt P03372)", "assigned_category": "inactive"}

Ask: Per the records of this test, what outcome belongs to `O=c1[nH]c2ccccc2n1C1CCNCC1` ?
Result: inactive

Ask: I'd appreciate the recorded outcome for `NC1(c2ccccc2)CCCCC1` from this test.
Result: inactive
